assay-overview: Oral bioavailability in dog
Type: ADME, organism-based, Canis lupus familiaris
reported-conditions: in vivo
reported-endpoint: bioavailability (%)
Number in %, nothing else.

INSERT INTO results (molecule, measurement_units, recorded_number) VALUES
  ('CN1CCC(NC(=O)c2ccc(Oc3ccc(C#C[C@]4(O)CN5CCC4CC5)cc3)cc2)CC1', '%', 47);

// query bioavailability value for entry O=C(NC1CCCS(=O)(=O)C1)c1ccc(Oc2ccc(C#C[C@]3(O)CN4CCC3CC4)cc2)cc1 (single isomer, unassigned; diastereomer 1) 21

###

target-of-assay: UniProt P08684
Sequence (P08684 whole entry): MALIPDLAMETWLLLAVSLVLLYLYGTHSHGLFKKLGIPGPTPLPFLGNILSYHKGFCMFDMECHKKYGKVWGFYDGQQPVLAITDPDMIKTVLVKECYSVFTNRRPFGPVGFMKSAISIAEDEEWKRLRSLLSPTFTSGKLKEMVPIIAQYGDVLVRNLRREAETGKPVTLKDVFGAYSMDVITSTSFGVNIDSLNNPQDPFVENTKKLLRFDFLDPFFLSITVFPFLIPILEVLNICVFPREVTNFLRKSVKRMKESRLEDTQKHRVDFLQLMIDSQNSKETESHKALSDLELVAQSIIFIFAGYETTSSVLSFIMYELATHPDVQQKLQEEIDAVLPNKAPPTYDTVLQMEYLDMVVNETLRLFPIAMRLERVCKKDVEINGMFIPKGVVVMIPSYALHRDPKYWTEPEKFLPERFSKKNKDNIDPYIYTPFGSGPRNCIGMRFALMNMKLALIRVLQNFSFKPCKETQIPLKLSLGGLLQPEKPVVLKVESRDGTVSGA
assay-overview: Inhibition of CYP3A4
Format: ADME
reported-conditions: read-out: IC50
pIC50: −log10 of the molar value.
reported-endpoint: pIC50

// query pIC50 value for entry O=C(NC1CCCS(=O)(=O)C1)c1ccc(Oc2ccc(C#C[C@]3(O)CN4CCC3CC4)cc2)cc1 (single isomer, unassigned; diastereomer 1) < 5.00
